Molecular target: UniProtKB Q99572
Sequence (Q99572 whole entry): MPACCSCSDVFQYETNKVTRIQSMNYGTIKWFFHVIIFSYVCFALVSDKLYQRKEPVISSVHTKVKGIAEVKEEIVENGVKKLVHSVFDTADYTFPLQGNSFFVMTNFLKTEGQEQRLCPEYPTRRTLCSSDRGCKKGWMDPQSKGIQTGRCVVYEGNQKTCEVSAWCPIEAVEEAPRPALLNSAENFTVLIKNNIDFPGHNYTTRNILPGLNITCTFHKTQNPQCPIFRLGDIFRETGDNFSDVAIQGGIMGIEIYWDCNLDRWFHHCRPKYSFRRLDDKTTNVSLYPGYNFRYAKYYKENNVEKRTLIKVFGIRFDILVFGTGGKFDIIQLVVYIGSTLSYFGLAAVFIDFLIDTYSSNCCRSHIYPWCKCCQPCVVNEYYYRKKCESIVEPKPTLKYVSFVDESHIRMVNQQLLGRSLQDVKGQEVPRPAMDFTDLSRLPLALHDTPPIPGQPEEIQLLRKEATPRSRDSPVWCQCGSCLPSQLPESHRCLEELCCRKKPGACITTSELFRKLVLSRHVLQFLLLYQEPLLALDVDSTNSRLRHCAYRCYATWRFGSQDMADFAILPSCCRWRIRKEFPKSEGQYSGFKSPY
Assay: Ca2+ flux (FLIPR) in 1321N1 cells expressing recombinant human P2X7 channel
Type: cell-based
Set-up: expressed in transfected cells; host or cells: 1321N1 cells
Details: 250 μM BzATP
Method: P2X7 Antagonism in Recombinant Human P2X7 Cells or Recombinant Rat P2X7 Cells: (a) Ca^2+ Flux and (b) Radioligand Binding (a) Ca^2+ flux: 1321N1 cells expressing the recombinant human or rat P2X7 channel was cultured in HyQ DME/(HyClone/Dulbecco's Modified Eagle Medium) high glucose supplemented with 10% Fetal Bovine Serum (FBS) and appropriate selection marker. […] The fluorescence change was measured 180 seconds after adding the agonist.
readout label: log10(IC50) (log10 of the value in nM)

>  <molecule>
CC1c2nnc(C3CCCCC3)n2CCN1C(=O)c1cccc(C(F)(F)F)c1Cl (centres unmarked)

>  <log10(IC50)>
2.53

$$$$
>  <molecule>
C[C@H]1Cn2c(nnc2-c2ccc(F)c(F)c2)CN1C(=O)c1cccc(Cl)c1Cl

>  <log10(IC50)>
4.02

$$$$
>  <molecule>
C[C@H]1Cn2c(nnc2-c2ccccc2F)CN1C(=O)c1ccc(F)c(Cl)c1Cl

>  <log10(IC50)>
3.96

$$$$
>  <molecule>
C[C@H]1Cn2c(nnc2-c2cc(F)c(F)c(F)c2)CN1C(=O)c1cccc(C(F)(F)F)c1Cl

>  <log10(IC50)>
1.92

$$$$
>  <molecule>
COc1ccc(-c2nnc3n2C[C@H](C)N(C(=O)c2cccc(C(F)(F)F)c2Cl)C3)nc1

>  <log10(IC50)>
3.09

$$$$
>  <molecule>
O=C(c1cccc(C(F)(F)F)c1Cl)N1CCn2c(nnc2C(F)(F)F)C1c1cccnc1 (racemic)

>  <log10(IC50)>
2.41

$$$$
>  <molecule>
C[C@H]1Cn2c(nnc2-c2ccc(C(F)(F)F)cc2)CN1C(=O)c1cccc(Cl)c1Cl

>  <log10(IC50)>
3.62

$$$$
